Measured values drawn from patent US20220340597A1 for this set.

# system: human TLR9 (Homo sapiens, UniProt Q9NR96)
# Sequence (Q9NR96 26-1032): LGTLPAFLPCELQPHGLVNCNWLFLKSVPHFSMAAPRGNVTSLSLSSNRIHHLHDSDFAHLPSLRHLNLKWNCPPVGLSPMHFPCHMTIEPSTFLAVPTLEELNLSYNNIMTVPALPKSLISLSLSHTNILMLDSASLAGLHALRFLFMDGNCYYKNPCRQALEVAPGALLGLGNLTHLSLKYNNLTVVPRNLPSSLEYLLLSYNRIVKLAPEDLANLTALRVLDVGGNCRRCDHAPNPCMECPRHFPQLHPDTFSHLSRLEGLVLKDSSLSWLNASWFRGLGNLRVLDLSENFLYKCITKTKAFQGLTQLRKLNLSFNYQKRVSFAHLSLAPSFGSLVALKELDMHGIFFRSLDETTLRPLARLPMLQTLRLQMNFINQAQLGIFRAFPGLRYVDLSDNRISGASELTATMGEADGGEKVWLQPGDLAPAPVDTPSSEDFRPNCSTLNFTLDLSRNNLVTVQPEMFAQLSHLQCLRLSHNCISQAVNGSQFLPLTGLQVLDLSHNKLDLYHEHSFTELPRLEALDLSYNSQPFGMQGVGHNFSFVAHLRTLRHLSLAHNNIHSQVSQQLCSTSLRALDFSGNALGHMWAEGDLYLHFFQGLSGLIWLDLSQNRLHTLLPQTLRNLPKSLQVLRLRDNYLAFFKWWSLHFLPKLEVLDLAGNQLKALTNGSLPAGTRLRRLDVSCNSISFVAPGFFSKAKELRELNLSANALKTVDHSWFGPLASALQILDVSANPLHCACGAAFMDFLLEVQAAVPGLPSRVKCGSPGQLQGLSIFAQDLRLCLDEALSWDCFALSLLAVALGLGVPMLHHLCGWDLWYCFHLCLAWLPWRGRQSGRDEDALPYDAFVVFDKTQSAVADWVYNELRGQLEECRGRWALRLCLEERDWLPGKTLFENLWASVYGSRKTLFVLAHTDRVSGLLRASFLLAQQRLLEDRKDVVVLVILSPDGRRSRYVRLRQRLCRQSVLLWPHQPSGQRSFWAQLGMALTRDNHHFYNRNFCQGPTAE
# method.notes: HEK293-Blue-hTLR-9 cells assay
# conditions: HEK293-Blue-hTLR9 cells, ODN2006 stimulation, 20 hrs, SEAP reporter; read-out: HEK/hTLR9 IC50
reported.metric: pIC50
Units for pIC50: none; it is -log10 of a concentration expressed in mol/L.

// pIC50 lookup, key: [2H]c1ccc2c(N3C[C@@H]4CN(CCc5ccnc(N6C[C@@H](N)[C@@H](F)C6)c5)CCN4[C@H](C)C3)ccc(C#N)c2n1 [Example 89]
7.33

// pIC50 lookup, key: [2H]c1ccc2c(N3C[C@@H]4CN(c5ccc(CCN6C[C@@H](N)[C@@H](F)C6)nc5)CCN4[C@@H](C)C3)ccc(C#N)c2n1 [Example 117]
7.38

// pIC50 lookup, key: [2H]c1ccc2c(N3C[C@@H]4CN(c5ccc(N6C[C@@H](N)[C@H](OC)C6)nc5)CCN4[C@@H](C)C3)ccc(C#N)c2n1 [Example 115]
6.85

// pIC50 lookup, key: Cc1nc(N2CC(C)(N)C2)ccc1CN1CCN2[C@@H](C1)CN(c1ccc(C#N)c3ncccc13)C[C@H]2C [Example 76]
7.30

// pIC50 lookup, key: C[C@@H]1CN(c2ccc(C#N)c3ncccc23)C[C@@H]2CN(Cc3ccc(N4CCNCC4)nc3)CCN21 [Example 8]
7.39

// pIC50 lookup, key: [2H]c1ccc2c(N3C[C@@H]4CN(Cc5cnc(N6C[C@@H]7C[C@H]6CN7)cc5C)CCN4[C@H](C)C3)ccc(C#N)c2n1 [Example 94]
7.00

// pIC50 lookup, key: [2H]c1ccc2c(N3C[C@@H]4CN(c5ccc(CN6C[C@@H](N)[C@H](OC)C6)c(C)n5)CCN4[C@@H](C)C3)ccc(C#N)c2n1 [Example 123]
6.97

// pIC50 lookup, key: CO[C@@H]1CN(c2ccc(CCN3CCN4[C@@H](C3)CN(c3ccc(C#N)c5ncccc35)C[C@H]4C)nc2)C[C@H]1N [Example 13]
7.40

// pIC50 lookup, key: [2H]c1ccc2c(N3C[C@@H]4CN(Cc5ccc(N6C[C@H]7NCCO[C@@H]7C6)nc5C)CCN4[C@H](C)C3)ccc(C#N)c2n1 [Example 98]
7.24

// pIC50 lookup, key: CO[C@H]1CN(c2ccc(CCN3CCN4[C@@H](C3)CN(c3ccc(C#N)c5ncccc35)C[C@H]4C)cn2)C[C@@H]1N [Example 25]
7.19

// pIC50 lookup, key: [2H]c1ccc2c(N3C[C@@H]4CN(Cc5ccc(N6CC7CNCC(C6)O7)nc5C)CCN4[C@H](C)C3)ccc(C#N)c2n1 [Example 83]
7.29

// pIC50 lookup, key: C[C@@H]1CN(c2ccc(C#N)c3ncccc23)C[C@@H]2CN(CCc3ccc(N4C[C@@H](N)[C@@H](F)C4)nc3)CCN21 [Example 17]
7.33

// pIC50 lookup, key: Cc1cc(N2CCOC[C@H](N)C2)ncc1N1CCN2CCN(c3ccc(C#N)c4ncccc34)CC2C1 (stereo partly shown) [Example 46]
7.11

----------
# system: hERG channel (Homo sapiens)
# Construct: expressed in transfected cells; host or cells: CHO (Chinese hamster ovary), CHOhERG
# Sequence (Q12809 whole entry): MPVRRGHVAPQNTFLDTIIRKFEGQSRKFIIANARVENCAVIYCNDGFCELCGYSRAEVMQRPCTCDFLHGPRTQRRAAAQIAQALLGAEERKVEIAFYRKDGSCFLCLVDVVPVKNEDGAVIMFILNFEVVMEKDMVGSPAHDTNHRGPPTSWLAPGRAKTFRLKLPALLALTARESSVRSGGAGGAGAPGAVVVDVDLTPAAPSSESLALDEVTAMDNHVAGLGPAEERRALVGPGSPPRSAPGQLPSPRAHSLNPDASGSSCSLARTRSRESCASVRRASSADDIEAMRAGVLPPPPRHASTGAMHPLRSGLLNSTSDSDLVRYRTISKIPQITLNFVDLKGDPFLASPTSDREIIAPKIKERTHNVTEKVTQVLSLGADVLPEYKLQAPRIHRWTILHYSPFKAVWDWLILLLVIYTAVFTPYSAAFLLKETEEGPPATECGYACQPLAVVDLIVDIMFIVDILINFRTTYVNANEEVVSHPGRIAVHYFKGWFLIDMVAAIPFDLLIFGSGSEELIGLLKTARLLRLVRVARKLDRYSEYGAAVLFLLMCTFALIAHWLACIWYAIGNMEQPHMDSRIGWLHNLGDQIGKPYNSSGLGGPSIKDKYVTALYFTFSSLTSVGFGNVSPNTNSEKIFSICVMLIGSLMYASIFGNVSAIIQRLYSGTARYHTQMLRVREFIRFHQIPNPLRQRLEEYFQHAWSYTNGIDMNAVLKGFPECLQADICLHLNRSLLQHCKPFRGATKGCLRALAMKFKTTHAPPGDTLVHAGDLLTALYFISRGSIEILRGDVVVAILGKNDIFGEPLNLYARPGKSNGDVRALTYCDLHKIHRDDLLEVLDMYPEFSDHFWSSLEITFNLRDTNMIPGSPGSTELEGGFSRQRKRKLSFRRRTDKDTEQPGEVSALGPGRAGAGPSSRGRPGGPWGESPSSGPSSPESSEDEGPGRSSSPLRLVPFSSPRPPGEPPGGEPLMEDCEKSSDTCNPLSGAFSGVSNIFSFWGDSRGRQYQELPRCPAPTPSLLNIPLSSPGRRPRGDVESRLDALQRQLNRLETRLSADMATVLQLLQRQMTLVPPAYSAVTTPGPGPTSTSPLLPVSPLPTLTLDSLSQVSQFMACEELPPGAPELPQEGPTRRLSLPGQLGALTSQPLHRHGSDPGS
# method.notes: hERG channel inhibition assay (patch-clamp, CHOhERG cells)
# Type: cell-based
# conditions: safety ratio
reported.metric: hERG IC20/TLR9 IC50

// hERG IC20/TLR9 IC50 lookup, key: [2H]c1ccc2c(N3C[C@@H]4CN(CCc5ccc(N6C[C@H]7NCCO[C@@H]7C6)nc5)CCN4[C@H](C)C3)ccc(C#N)c2n1
>227

// hERG IC20/TLR9 IC50 lookup, key: C[C@@H]1CN(c2ccc(C#N)c3ncccc23)C[C@@H]2CN(Cc3ccc4c(c3)CNCC4)CCN21 [Example 5]
>313

// hERG IC20/TLR9 IC50 lookup, key: CO[C@@H]1CN(c2ccnc(N3CCN4[C@@H](C3)CN(c3ccc(C#N)c5ncccc35)C[C@H]4C)n2)C[C@H]1N
73

// hERG IC20/TLR9 IC50 lookup, key: [2H]c1ccc2c(N3C[C@@H]4CN(Cc5ccc(N6CC(C)(N)C6)nc5C)CCN4[C@H](C)C3)ccc(C#N)c2n1
>217

----------
# system: human TLR9 (Homo sapiens, UniProt Q9NR96)
# method.notes: HEK293-Blue-hTLR-9 cells assay
# conditions: HEK293-Blue-hTLR9 cells, ODN2006 stimulation, 20 hrs, SEAP reporter; read-out: HEK/hTLR9 IC50
# Procedure: The following tests were carried out in order to determine the activity of the compounds of formula (I) and (Ia) in HEK293-Blue-hTLR-7/8/9 cells assay. HEK293-Blue-hTLR-9 Cells Assay: A stable HEK293-Blue-hTLR-9 cell line was purchased from InvivoGen (Cat. #: hkb-htlr9, San Diego, Calif., USA). […] Then 20 μL of the supernatant from each well was incubated with 180 μL Quanti-blue substrate solution at 37° C. for 2 h and the absorbance was read at 620-655 nm using a spectrophotometer. […]
reported.metric: pIC50
Units for pIC50: none; it is -log10 of a concentration expressed in mol/L.

// pIC50 lookup, key: C[C@@H]1CN(c2ccc(C#N)c3ncccc23)C[C@@H]2CN(c3ccnc(N4CCNCC4)c3)CCN21 [Example 32]
7.47

// pIC50 lookup, key: [2H]c1ccc2c(N3C[C@@H]4CN(c5ncc(N6CCOC[C@H](N)C6)cc5C)CCN4[C@@H](C)C3)ccc(C#N)c2n1 [Example 110]
7.15

// pIC50 lookup, key: [2H]c1ccc2c(N3C[C@@H]4CN(c5ncc(N6C[C@@H](N)[C@H](OC)C6)cc5C)CCN4[C@H](C)C3)ccc(C#N)c2n1 [Example 99]
6.81

// pIC50 lookup, key: [2H]c1ccc2c(N3C[C@@H]4CN(CCc5ccc(N6C[C@H]7NCCO[C@@H]7C6)nc5)CCN4[C@H](C)C3)ccc(C#N)c2n1 [Example 77]
7.36

// pIC50 lookup, key: [2H]c1ccc2c(N3C[C@@H]4CN(Cc5cnc(N6CCNCC6)cc5C)CCN4[C@H](C)C3)ccc(C#N)c2n1 [Example 87]
7.28

// pIC50 lookup, key: [2H]c1ccc2c(N3C[C@@H]4CN(c5ncc(N6C[C@@H](N)[C@@H](OC)C6)cc5C)CCN4[C@H](C)C3)ccc(C#N)c2n1 [Example 96]
6.72

----------
# system: hERG channel (Homo sapiens)
# Construct: expressed in transfected cells; host or cells: CHO (Chinese hamster ovary), CHOhERG
# method.notes: hERG channel inhibition assay (patch-clamp, CHOhERG cells)
# Format: cell-based
# conditions: safety ratio
What hERG IC20/TLR8 IC50 was measured for each of the following?

// hERG IC20/TLR8 IC50 lookup, key: C[C@@H]1CN(c2ccc(C#N)c3ncccc23)C[C@@H]2CN(c3nccc(N4CCNCC4)n3)CCN21 [Example 30]
216

// hERG IC20/TLR8 IC50 lookup, key: [2H]c1ccc2c(N3C[C@@H]4CN(CCc5ccc(N6C[C@H]7NCCO[C@@H]7C6)nc5)CCN4[C@H](C)C3)ccc(C#N)c2n1 [Example 77]
>416

// hERG IC20/TLR8 IC50 lookup, key: [2H]c1ccc2c(N3C[C@@H]4CN(Cc5ccc(N6CC7CNCC(C6)O7)nc5C)CCN4[C@H](C)C3)ccc(C#N)c2n1 [Example 83]
>1428

----------
# system: hERG channel (Homo sapiens)
# Construct: expressed in transfected cells; host or cells: CHO (Chinese hamster ovary), CHOhERG
# method.notes: hERG channel inhibition assay (patch-clamp, CHOhERG cells)
# Assay type: cell-based
# conditions: safety ratio
# Experimental: hERG Channel Inhibition Assay: The hERG K^+ channels were cloned in humans and stably expressed in a CHO (Chinese hamster ovary) cell line. CHOhERG cells were used for patch-clamp (voltage-clamp, whole-cell) experiments. […] After the cells were stabilized for a few minutes, the amplitude and kinetics of IKhERG were recorded at a stimulation frequency of 0.1 Hz (6 bpm). […]
reported.metric: hERG IC20/TLR8 IC50

State its hERG IC20/TLR8 IC50 on hERG channel (Homo sapiens): C[C@@H]1CN(c2ccc(C#N)c3ncccc23)C[C@@H]2CN(CCc3ccc(N4CC5(CN(C)C5)C4)nc3)CCN21
>172

State its hERG IC20/TLR8 IC50 on hERG channel (Homo sapiens): C[C@@H]1CN(c2ccc(C#N)n3ncc(F)c23)C[C@@H]2CN(Cc3ccc4c(c3)CNCC4)CCN21
>192

State its hERG IC20/TLR8 IC50 on hERG channel (Homo sapiens): [2H]c1ccc2c(N3C[C@@H]4CN(Cc5ccc(N6CC(C)(N)C6)nc5C)CCN4[C@H](C)C3)ccc(C#N)c2n1
>1666

State its hERG IC20/TLR8 IC50 on hERG channel (Homo sapiens): [2H]c1ccc2c(N3C[C@@H]4CN(Cc5ccc(N6C[C@@H]7C[C@H]6CN7)nc5C)CCN4[C@H](C)C3)ccc(C#N)c2n1
>1111

State its hERG IC20/TLR8 IC50 on hERG channel (Homo sapiens): [2H]c1ccc2c(N3C[C@@H]4CN(Cc5ccc(N6C[C@H]7NCCO[C@@H]7C6)nc5C)CCN4[C@H](C)C3)ccc(C#N)c2n1
>1000

State its hERG IC20/TLR8 IC50 on hERG channel (Homo sapiens): CO[C@@H]1CN(c2ccc(CCN3CCN4[C@@H](C3)CN(c3ccc(C#N)c5ncccc35)C[C@H]4C)cn2)C[C@H]1N
>714
